As shown below, each of these compounds has a reported IC50 value.
test system: HCV replicon 1AY93H; experiment: microbe, parasite or virus in culture; format: cell-based, Hepatitis C virus (HCV); conditions: read-out: 1A Y93H IC50; replicon 1AY93H; Replicon Assay A
# unit: nM | format: bare number

COC(=O)N[C@H](C(=O)N1CCC[C@H]1c1ncc(-c2cc(F)c3c(c2)OC(c2ccsc2)n2c-3cc3cc(-c4cnc([C@@H]5CCCN5C(=O)[C@@H](NC(=O)OC)C(C)C)[nH]4)ccc32)[nH]1)C(C)C (single isomer, unassigned) [Compound 317] | 0.11

Now for the compound whose IC50 we want.
Input line: Fill in: IC50 of COC(=O)NC(C(=O)N1CCC[C@H]1c1ncc(-c2cc(F)c3c(c2)OC(c2ccc(C4CC4)s2)n2c-3cc3cc(-c4cnc([C@@H]5CCCN5C(=O)[C@@H](NC(=O)OC)C(C)C)[nH]4)ccc32)[nH]1)C1CCOC(C)(C)C1 (single isomer, unassigned) [Compound 214] is ___
Output line: 0.009

Reference source for all entries: patent US20160257697A1
